readout: melting point

CN(C)C=Nc1snc(C#N)c1C#N	173 °C
O=C(NN=CC=Cc1ccccc1)c1ccccc1	192 to 194 °C
Cc1cc(C2C(=O)Oc3c2cc(C(C)(C)C)cc3C(C)(C)C)cc(C)c1O (configuration not stated)	225 to 228 °C
Cc1nc2c(C)nn(C)c2c(=O)[nH]1	258 to 260 °C
CCOc1ccccc1C1(O)C(=O)Nc2cc(C)c(Cl)cc21 (configuration not stated)	253 °C

In: Which measured melting point value corresponds to Cc1cccc(NC(=O)NCCC(=O)N(CC(=O)OC(C)(C)C)c2ccccc2)c1 ?
Out: 142 °C

In: Which measured melting point value corresponds to O=C1c2cc([N+](=O)[O-])ccc2-n2c1nc1ccccc1c2=O ?
Out: 302 to 303 °C

In: Which measured melting point value corresponds to Nc1ccccc1NC(=O)c1ccc(CNC(=O)OCc2cccnc2)cc1 ?
Out: 159 to 160 °C

In: Which measured melting point value corresponds to N#CC(N)COc1ccccc1 (configuration not stated) ?
Out: 65 °C

Provenance of the data: a melting point compilation (Tetko et al.; mined from patent text by program, amines drawn as free bases though some values may be those of a salt)
